Cited source: PubChem BioAssay (Tox21)

Biological target: 5-hydroxytryptamine receptor 2A (Homo sapiens) (UniProt P28223)
Sequence (P28223 whole entry, looked up): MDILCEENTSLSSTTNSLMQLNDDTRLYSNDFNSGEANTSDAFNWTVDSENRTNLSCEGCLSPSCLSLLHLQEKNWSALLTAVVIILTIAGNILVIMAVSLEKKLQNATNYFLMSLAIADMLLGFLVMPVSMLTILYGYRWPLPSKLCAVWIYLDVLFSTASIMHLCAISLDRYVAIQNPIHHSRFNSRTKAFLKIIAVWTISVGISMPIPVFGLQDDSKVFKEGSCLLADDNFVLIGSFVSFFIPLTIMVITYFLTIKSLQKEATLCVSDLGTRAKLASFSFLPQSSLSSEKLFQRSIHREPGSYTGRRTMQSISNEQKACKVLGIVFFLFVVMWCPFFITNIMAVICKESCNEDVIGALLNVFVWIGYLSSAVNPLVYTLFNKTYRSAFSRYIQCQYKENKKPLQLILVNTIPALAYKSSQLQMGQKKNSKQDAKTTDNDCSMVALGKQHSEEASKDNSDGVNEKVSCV
Test: 5-hydroxytryptamine receptor 2A (HTR2A) small molecule agonists, cell-based qHTS assay (AID 1963587); also: nearly all actives have a fitted effect of over 30% in size
Settings: HTR2A-CHO cells, calcium flux fluorescence, agonist mode; series mostly up to 76.8 µM
Results filed as inconclusive are left out. Active and inactive are the calls of the source. Calls follow the shape of the full dose curve.
Outcome codes: active, inactive

> print(dat)
                                    compound  class.name
 1  CN1CCC(Nc2ncc3ncnc(Nc4ccc(F)c(Cl)c4)c3n2)CC1    inactive
 2             CCCCCC(C)O (stereo not drawn)    inactive
 3  c1cc(N(CC2CO2)CC2CO2)ccc1OCC1CO1 (stereo not drawn)    inactive
 4  C[n+]1c2cc(N)ccc2cc2ccc(N)cc21 (tested in a mixture with another compound)      active
 5                           Cc1c(Cl)cccc1Cl    inactive
 6  CSc1ccc2c(c1)C(N1CCN(C)CC1)Cc1ccccc1S2 (stereo not drawn)    inactive
 7      O=c1[nH]nc(-c2ccc([N+](=O)[O-])o2)o1    inactive
 8                      C=Cc1ccc(OC(C)=O)cc1    inactive
 9                              N#Cc1ccccc1O    inactive
10  O=S(=O)(O)c1cc(S(=O)(=O)O)c2c(N=Nc3ccccc3)c(O)ccc2c1    inactive
11            CCCOc1ccc2nc(NC(=O)OC)[nH]c2c1    inactive
12               NC(N)=NS(=O)(=O)c1ccc(N)cc1    inactive
13                 CN(C)CCOc1ccccc1Cc1ccccc1    inactive
